// provenance: the supplement of paper PMC13380429

- System: Vero E6 infected with SARS-CoV-2
- Protocol notes: morphology score (similarity to uninfected cells); higher = more like uninfected cells
- Applied conditions: 24 h
Please use yes (1) whenever morphology score is not below 0.07, and no (0) whenever it is.

Compound	Label
[O-][n+]1cccc(CO)c1 [mepiroxol] (10 µM)	no (0)
CCCCCCCCCCCCCCCCCCCCCCCCC(=O)O [pentacosanoic-acid] (10 µM)	yes (1)
C/C(=N\NC(=N)N)c1cc(NC(=O)CCCCCCCCC(=O)Nc2cc(/C(C)=N/NC(=N)N)cc(/C(C)=N/NC(=N)N)c2)cc(/C(C)=N/NC(=N)N)c1 [semapimod] (0.833333 µM)	no (0)
Cn1c(CNc2ccc(C(=N)N)cc2)nc2cc(C(=O)N(CCC(=O)O)c3ccccn3)ccc21 [dabigatran] (10 µM)	yes (1)
CSc1nc2ccc3nc(NC(=O)C(c4ccccc4)c4ccccc4)sc3c2s1 (10 µM)	yes (1)
O=S1(=O)N[C@H]2CCCN2c2ccccc21 (10 µM)	no (0)
C/C(=C\c1csc(C)n1)[C@@H]1C[C@@H]2O[C@]2(C)CCC[C@H](C)[C@H](O)[C@@H](C)C(=O)C(C)(C)[C@@H](O)CC(=O)N1 [ixabepilone] (10 µM)	no (0)
CN(C)c1cccc(-c2c3c(=O)n(-c4ccccc4Cl)[nH]c3cc(=O)n2C)c1 (10 µM)	yes (1)
CS(=O)(=O)c1ccc(-c2cnc(NCc3ccco3)n3cnnc23)cc1 (10 µM)	yes (1)
CCS(=O)(=O)N1CCN(c2ccc(Nc3ncc(C(N)=O)c(NC4CC4)n3)cc2)CC1 (10 µM)	yes (1)
Cc1cc(O)c(C(=O)N[C@@H](C(=O)N[C@@H]2C(=O)N3C(C(=O)O)=C(CSc4nnnn4C)CS[C@H]23)c2ccc(O)cc2)cn1 [cefpiramide] (10 µM)	no (0)
O=C(Nc1cc(Oc2cc(F)c(NC(=O)C3(C(=O)Nc4ccc(F)cc4)CC3)cc2F)ccn1)C1CC1 [altiratinib] (10 µM)	yes (1)
CO/N=C(\C(=O)N[C@@H]1C(=O)N2C(C(=O)O)=CCS[C@H]12)c1csc(N)n1 [ceftizoxim] (10 µM)	no (0)
CCCCCCCCCCCCCCCC[n+]1ccccc1 [cetylpyridinium] (0.833333 µM)	yes (1)
CC(C)Nc1cc(-c2c[nH]c(C(=O)N[C@H](CO)c3cccc(Cl)c3)c2)c(Cl)cn1 (0.833333 µM)	no (0)
CC[C@@H](c1ccc(F)c(F)c1)n1c(C(=O)OC)c(-c2ccno2)[nH]c1=S (10 µM)	no (0)
O[C@H]([C@H](O)[C@@H]1CO1)[C@H]1CO1 [dianhydrogalactitol] (10 µM)	no (0)
O[C@H]1CC[C@H](Nc2nc(-c3ccccc3)nc3[nH]ccc23)CC1 (10 µM)	yes (1)
Cc1cccc(C)c1NC(=O)c1ccccc1C(=O)O [ftaxilide] (10 µM)	no (0)
CCOC(=O)NNc1ccc(N(CC)CC(C)O)nn1 (centres undefined) [cadralazine] (10 µM)	yes (1)
CN[C@H]1CC[C@@H](c2ccc(Cl)c(Cl)c2)c2ccccc21 (0.833333 µM)	yes (1)
Fc1ccc(CNc2ncnc3ccc(F)cc23)cc1 [spautin-1] (10 µM)	no (0)
NC(=O)N1c2ccccc2C=Cc2ccccc21 [carbamazepine] (10 µM)	no (0)
N#Cc1ncccn1 [2-cyanopyrimidine] (10 µM)	no (0)
CCC(C)(C)C(=O)C(=O)N1CCC[C@H]1C(=O)OCCCc1cccnc1 (10 µM)	no (0)
C1Cc2[nH]nc(-c3nn[nH]n3)c2C1 (10 µM)	no (0)
COc1ccc(-c2ccc3c(N4CCOC[C@@H]4C)nc(N4CCOC[C@@H]4C)nc3n2)cc1CO (0.833333 µM)	no (0)
O=Nc1ccc(O)c2ncccc12 (10 µM)	no (0)
